All figures here come from patent US20230105029A1.

Measured kon, listed per entry for reference.
target: T1, recombinant human IL4Rα-his protein (in house made) (human, UniProt P24394 26-232, limits assumed); assay: SPR (Biacore), antibody captured, IL4Rα-his flowed
T1 construct: also called Human IL4Ra-his
observed property: kon (M⁻¹ s⁻¹)

>>> measured_result("huC2C1A1A1-V6 (antibody, human IgG4 S228P, kappa, V domains shown, Humanized, human IgG4/kappa) VH: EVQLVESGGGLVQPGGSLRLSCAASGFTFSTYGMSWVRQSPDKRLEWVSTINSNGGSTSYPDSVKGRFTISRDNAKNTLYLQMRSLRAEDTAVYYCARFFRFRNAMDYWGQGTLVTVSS VL: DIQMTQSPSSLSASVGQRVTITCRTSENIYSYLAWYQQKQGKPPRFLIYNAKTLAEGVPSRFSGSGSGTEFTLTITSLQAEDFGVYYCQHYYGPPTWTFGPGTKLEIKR")
383000
>>> measured_result("huC2C1A1A1-V3 (antibody, human IgG4, V domains shown, Humanized, human IgG4/kappa) VH: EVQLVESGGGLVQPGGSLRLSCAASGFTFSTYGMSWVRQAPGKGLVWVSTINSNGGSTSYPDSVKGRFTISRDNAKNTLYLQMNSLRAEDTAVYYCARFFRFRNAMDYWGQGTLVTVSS VL: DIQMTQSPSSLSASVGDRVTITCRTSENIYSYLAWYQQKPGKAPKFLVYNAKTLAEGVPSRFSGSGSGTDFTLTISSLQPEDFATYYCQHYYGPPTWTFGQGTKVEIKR")
257000
>>> measured_result("huC2C1A1A1-V4 (antibody, human IgG4 S228P, kappa, V domains shown, Humanized, human IgG4/kappa) VH: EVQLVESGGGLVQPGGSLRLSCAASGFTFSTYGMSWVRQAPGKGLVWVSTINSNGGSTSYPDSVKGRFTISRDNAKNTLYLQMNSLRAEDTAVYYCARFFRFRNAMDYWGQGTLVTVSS VL: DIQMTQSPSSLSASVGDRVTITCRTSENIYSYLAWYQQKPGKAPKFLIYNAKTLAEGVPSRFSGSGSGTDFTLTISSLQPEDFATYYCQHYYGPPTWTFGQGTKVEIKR")
455000
>>> measured_result("huC2C1A1A1-V15 (antibody, human IgG4, V domains shown, Humanized, human IgG4/kappa) VH: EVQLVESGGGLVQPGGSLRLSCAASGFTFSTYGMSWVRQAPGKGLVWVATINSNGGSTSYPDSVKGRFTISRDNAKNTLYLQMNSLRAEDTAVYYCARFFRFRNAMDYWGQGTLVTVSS VL: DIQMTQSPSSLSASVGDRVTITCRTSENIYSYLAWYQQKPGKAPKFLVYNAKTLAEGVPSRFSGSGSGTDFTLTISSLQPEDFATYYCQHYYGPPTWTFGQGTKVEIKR")
230000
>>> measured_result("huC2C1A1A1-V9 (antibody, human IgG4 S228P, kappa, V domains shown, Humanized, human IgG4/kappa) VH: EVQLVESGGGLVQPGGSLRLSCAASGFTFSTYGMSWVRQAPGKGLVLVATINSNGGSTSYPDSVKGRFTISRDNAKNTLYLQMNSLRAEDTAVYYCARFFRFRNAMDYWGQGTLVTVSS VL: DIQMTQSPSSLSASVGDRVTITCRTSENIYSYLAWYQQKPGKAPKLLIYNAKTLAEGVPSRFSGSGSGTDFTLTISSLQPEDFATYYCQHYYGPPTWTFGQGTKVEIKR")
197000
